Reference source for all entries: patent US20210054078A1

# assay.target: T1, mouse PD-L1 (soluble protein of the kinetic measurements) (mouse, UniProt Q9EP73 19-238, limits assumed)
# T1 construct: kept apart from the His-tag protein of the ELISA; also called mPD-L1
# T1 sequence (Q9EP73 19-238 limits assumed): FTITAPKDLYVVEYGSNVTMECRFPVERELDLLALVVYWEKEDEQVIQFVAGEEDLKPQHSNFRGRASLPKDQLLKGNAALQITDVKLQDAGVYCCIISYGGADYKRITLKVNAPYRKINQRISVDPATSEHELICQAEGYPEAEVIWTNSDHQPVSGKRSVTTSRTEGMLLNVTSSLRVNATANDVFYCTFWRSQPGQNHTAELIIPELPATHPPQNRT
# assay.overview: BLI (Octet), antibody fixed on biosensor, PD-L1 in solution
Listed next: entries and their corresponding kon.
Numbers only here, please. The scale is M⁻¹ s⁻¹.

ME4 anti-PD-L1 antibody (IgG form) (antibody, V domains shown, Converted to IgG with the vectors pIgGHD-6A6Hvy and pIgGLD-6A6Lgt; Expressed in Expi293F cells) VH: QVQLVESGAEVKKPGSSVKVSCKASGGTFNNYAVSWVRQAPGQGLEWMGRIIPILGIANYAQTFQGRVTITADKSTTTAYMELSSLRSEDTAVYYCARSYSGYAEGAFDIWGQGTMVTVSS VL: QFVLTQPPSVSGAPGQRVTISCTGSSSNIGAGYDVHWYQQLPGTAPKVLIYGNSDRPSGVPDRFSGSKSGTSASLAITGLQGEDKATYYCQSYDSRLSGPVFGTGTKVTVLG; 56300

Shift focus to the following entry.
Lookup: Reported kon for ME4.A2 anti-PD-L1 antibody (IgG form) (antibody, V domains shown) VH: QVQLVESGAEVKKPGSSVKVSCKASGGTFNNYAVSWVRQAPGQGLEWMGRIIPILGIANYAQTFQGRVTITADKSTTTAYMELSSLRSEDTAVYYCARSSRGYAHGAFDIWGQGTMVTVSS VL: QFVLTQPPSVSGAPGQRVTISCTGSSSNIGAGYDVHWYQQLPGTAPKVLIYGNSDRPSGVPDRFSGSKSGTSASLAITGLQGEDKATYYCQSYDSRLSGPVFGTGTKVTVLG : what is it?
Found: 328000
